System Under Test: T1, cynomolgus monkey BCMA (cynomolgus monkey, UniProt A0A2K5UD97 1-53)
T1 construct: Soluble analyte in SPR; construct not described; also called cyBCMA; Cyno BCMA
T1 sequence (A0A2K5UD97 entry or part of it): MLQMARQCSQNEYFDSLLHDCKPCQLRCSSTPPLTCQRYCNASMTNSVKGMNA
Assay: SPR, IgG immobilised, 25 C
Measured Endpoint: koff (s⁻¹)
Number only, in s⁻¹; omit the unit.

// known answers, use as guide
L1.LGF/L3.NY/P6E01 (antibody, V domains shown, IgG) VH: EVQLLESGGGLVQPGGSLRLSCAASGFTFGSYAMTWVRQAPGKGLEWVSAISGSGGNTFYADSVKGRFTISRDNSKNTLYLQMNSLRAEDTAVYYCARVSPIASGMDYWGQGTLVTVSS VL: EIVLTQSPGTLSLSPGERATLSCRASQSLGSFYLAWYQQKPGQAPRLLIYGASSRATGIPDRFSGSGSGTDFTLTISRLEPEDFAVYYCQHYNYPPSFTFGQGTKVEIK	0.0105
L1.LGF/L3.KW/H3.AL (antibody, V domains shown, IgG) VH: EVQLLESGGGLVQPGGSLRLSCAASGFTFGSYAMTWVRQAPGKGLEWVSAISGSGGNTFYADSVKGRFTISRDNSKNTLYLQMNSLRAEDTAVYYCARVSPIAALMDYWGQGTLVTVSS VL: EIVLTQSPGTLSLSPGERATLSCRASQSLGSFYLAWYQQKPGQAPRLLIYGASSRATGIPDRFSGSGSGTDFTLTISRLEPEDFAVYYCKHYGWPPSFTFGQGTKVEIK	0.0121

Continue with the next binder.
-- ask Report koff for L3.PY/P6E01 (antibody, V domains shown, IgG) VH: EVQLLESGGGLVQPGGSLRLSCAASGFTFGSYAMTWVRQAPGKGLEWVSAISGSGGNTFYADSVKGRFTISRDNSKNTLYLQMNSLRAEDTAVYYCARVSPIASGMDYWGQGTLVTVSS VL: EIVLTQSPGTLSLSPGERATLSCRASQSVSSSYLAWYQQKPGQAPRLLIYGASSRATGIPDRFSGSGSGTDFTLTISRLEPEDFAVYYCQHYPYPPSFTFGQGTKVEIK please.
-- reply 0.00293
